system_tested: biotinylated αvβ6
assay_text: inhibition of biotinylated αvβ6 binding to plate-coated LAP, streptavidin-HRP
assay_metric: IC50 relative to chimeric antibody (ratio to chimeric antibody)
Answers are plain numbers.

Here is how some binders turned out for IC50 relative to chimeric antibody (ratio to chimeric antibody).
# binder, number
measured = [
    ("humanized 1A8 antibody VH1/Vκ2 (antibody, IgG1, V domains shown) VH: QVQFVQSGPELKKPGASVKVSCKGSSYTFTDYTMHWVKLAHAKTLEWIGVIDTYYGKTNYNQKFEGRATMTVDKSSSTAYMELARLRSEDSAVYYCARGGFRRGDRPSLRYAMDSWGQGTSVTVSS VL: DIVLTQSPDSLAVSLGERATINCRASQSVSISTYSYIHWFQQKPGQPPKLLIKYASNLESGVPDRFSGSGSGTDFTLKISRVEEEDVGIYYCQHSWEIPYTFGGGTKVEIK", 1.19),
    ("humanized 1A8 antibody VH4/Vκ3 (antibody, IgG1, V domains shown) VH: QVQLVQSGAEVKKPGASVKVSCKGSSYTFTDYTMHWVRLASAKTLEWIGVIDTYYGKTNYNQKFEGRATITVDKSSSTAYMELSSLRSEDTAVYYCARGGFRRGDRPSLRYAMDSWGQGTLVTVSS VL: DIVMTQSPDSLAVSLGERATINCRASQSVSISTYSYIHWFQQKPGQPPKLLIKYASNLESGVPDRFSGSGSGTDFTLKISRVEAEDVGIYYCQHSWEIPYTFGGGTKVEIK", 1.74),
    ("humanized 1A8 antibody VH1/Vκ1 (antibody, IgG1, V domains shown) VH: QVQFVQSGPELKKPGASVKVSCKGSSYTFTDYTMHWVKLAHAKTLEWIGVIDTYYGKTNYNQKFEGRATMTVDKSSSTAYMELARLRSEDSAVYYCARGGFRRGDRPSLRYAMDSWGQGTSVTVSS VL: DIVLTQSPDSLAVSLGERATINCRASQSVSISTYSYIHWFQQKPGQPPKLLIKYASNLESGVPDRFSGSGSGTDFTLNIHPVEEEDVGIYYCQHSWEIPYTFGGGTKVEIK", 1.02),
    ("humanized 1A8 antibody VH2/Vκ2 (antibody, IgG1, V domains shown) VH: QVQLVQSGAEVKKPGASVKVSCKGSSYTFTDYTMHWVKLASAKTLEWIGVIDTYYGKTNYNQKFEGRATMTVDKSSSTAYMELSSLRSEDTAVYYCARGGFRRGDRPSLRYAMDSWGQGTLVTVSS VL: DIVLTQSPDSLAVSLGERATINCRASQSVSISTYSYIHWFQQKPGQPPKLLIKYASNLESGVPDRFSGSGSGTDFTLKISRVEEEDVGIYYCQHSWEIPYTFGGGTKVEIK", 1.32),
]

We now examine a further binder.
For the binder humanized 1A8 antibody VH3/Vκ3 (antibody, IgG1, V domains shown) VH: QVQLVQSGAEVKKPGASVKVSCKGSSYTFTDYTMHWVRLASAKTLEWIGVIDTYYGKTNYNQKFEGRATMTVDKSSSTAYMELSSLRSEDTAVYYCARGGFRRGDRPSLRYAMDSWGQGTLVTVSS VL: DIVMTQSPDSLAVSLGERATINCRASQSVSISTYSYIHWFQQKPGQPPKLLIKYASNLESGVPDRFSGSGSGTDFTLKISRVEAEDVGIYYCQHSWEIPYTFGGGTKVEIK , what IC50 relative to chimeric antibody (ratio to chimeric antibody) is on record?
1.2
